# TEST_TARGET: hNaV1.7 (Homo sapiens (Human), UniProt Q15858)
# Sequence (Q15858 whole entry, looked up): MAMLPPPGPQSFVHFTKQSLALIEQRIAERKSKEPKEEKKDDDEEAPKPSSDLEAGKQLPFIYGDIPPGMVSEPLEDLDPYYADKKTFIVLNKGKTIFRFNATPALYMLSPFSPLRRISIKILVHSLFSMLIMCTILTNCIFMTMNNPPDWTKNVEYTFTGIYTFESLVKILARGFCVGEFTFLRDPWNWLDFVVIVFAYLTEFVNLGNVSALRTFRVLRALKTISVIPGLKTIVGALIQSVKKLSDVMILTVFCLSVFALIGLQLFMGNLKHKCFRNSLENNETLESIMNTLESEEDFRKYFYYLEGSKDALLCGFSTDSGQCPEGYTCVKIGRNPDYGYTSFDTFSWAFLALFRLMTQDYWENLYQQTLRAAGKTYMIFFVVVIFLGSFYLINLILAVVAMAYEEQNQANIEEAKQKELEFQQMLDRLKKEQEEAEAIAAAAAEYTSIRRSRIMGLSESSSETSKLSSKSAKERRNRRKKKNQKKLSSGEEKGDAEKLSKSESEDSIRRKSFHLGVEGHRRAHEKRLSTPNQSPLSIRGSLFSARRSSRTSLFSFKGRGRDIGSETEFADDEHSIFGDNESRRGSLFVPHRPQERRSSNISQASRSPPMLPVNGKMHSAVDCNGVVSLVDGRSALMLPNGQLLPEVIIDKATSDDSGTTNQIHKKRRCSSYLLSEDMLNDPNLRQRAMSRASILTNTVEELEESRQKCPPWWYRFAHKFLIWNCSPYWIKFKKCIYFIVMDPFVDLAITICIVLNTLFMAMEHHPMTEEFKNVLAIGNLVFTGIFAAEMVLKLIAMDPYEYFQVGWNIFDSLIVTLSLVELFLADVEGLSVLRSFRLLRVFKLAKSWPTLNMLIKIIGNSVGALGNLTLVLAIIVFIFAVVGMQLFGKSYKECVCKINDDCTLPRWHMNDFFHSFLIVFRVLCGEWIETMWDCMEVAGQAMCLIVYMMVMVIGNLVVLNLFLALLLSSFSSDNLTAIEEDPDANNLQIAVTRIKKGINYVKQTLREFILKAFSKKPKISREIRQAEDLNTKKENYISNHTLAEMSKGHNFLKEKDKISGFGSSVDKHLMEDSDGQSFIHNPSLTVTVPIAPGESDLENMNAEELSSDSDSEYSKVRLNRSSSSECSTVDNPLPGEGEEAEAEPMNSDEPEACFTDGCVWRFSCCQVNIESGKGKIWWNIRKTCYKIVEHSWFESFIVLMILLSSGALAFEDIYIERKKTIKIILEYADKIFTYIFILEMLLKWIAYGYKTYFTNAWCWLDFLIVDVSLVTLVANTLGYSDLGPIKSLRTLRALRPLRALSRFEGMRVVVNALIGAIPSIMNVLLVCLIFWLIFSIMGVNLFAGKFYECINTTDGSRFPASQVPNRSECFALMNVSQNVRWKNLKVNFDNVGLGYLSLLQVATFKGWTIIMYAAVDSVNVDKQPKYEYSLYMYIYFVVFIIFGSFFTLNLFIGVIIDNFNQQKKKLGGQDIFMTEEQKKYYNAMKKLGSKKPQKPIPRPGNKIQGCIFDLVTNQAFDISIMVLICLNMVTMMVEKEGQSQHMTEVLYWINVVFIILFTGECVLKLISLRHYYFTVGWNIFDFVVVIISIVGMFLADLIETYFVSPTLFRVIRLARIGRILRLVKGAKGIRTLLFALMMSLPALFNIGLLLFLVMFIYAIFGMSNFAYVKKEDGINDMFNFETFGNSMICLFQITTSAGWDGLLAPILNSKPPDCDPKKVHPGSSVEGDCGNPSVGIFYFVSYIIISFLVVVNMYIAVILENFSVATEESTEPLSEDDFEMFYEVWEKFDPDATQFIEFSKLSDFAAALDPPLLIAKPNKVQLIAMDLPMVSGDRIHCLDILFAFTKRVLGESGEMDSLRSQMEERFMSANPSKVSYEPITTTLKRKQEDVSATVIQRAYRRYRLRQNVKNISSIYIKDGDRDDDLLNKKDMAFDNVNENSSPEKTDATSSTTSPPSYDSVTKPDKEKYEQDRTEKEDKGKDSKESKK
# Sequence (Q07699 whole entry partner, looked up): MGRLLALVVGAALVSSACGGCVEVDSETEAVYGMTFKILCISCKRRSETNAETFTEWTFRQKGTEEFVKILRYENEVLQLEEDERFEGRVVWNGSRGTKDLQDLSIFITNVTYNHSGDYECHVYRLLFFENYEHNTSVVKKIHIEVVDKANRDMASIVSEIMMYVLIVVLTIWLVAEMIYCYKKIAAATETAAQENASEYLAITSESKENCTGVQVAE
# TEST_NAME: Patch voltage clamp electrophysiology, inactivated state block of NaV1.7 in HEK-293 cells
# Assay type: cell-based
# COND: HEK cells with β1 subunit, read-out: hNaV 1.7 IC50
RESULT_TYPE: IC50 (µM)
Give just the number in µM; leave the unit off.

Input line: Returns the measured IC50 for the input compound. Input: CC(C)COc1ncc(Oc2cc(F)c(C(=O)NS(=O)(=O)Nc3ccc(C#N)cc3)cc2Cl)cc1Cl [Preparation 21]
Output line: 0.828

Input line: Try CC(C)COc1ncc(Oc2cc(F)c(C(=O)NS(=O)(=O)N(C)C)cc2Cl)cc1Cl [Preparation 3] next.
Output line: 0.011

Input line: And the next one, CC(C)COc1ncc(Oc2cc(F)c(C(=O)NS(=O)(=O)N3CCc4ccccc43)cc2Cl)cc1Cl [Preparation 25] ?
Output line: 0.19

Input line: Entry to check: NS(=O)(=O)NC(=O)c1cc(Cl)c(Oc2ccc(Cl)c(C(F)(F)F)c2)cc1F [Preparation 7]
Output line: 0.19

Input line: Here is the next compound: NS(=O)(=O)NC(=O)c1cc(Cl)c(Oc2ccc(OC(F)(F)F)c(Cl)c2)cc1F [Preparation 10]
Output line: 0.226

Input line: And CC(C)COc1ncc(Oc2cc(F)c(C(=O)NS(=O)(=O)N(C)C(C)C)cc2Cl)cc1Cl [Preparation 17] ?
Output line: 0.125

Input line: And for CC(C)COc1ncc(Oc2cc(F)c(C(=O)NS(=O)(=O)c3cn(C)cn3)cc2Cl)cc1Cl [Preparation 24] ?
Output line: 0.034

Input line: Consider next the compound C=Cc1cc(C(=O)NS(=O)(=O)N2CCC2)c(F)cc1Oc1cnc(OC(C)C)c(Cl)c1 [Preparation 91] in the same way.
Output line: 0.0067

Input line: Request: CNS(=O)(=O)NC(=O)c1cc(Cl)c(COc2ccc(Cl)c(Cl)c2)cc1F [Preparation 80]
Output line: 0.0116

Input line: Same thing, different compound: CN(C)S(=O)(=O)NC(=O)c1cc(Cl)c(OCc2ccc(Cl)c(Cl)c2)cc1F [Preparation 23]
Output line: 0.271

Input line: Quick one: CC(C)COc1ncc(Oc2cc(F)c(C(=O)NS(=O)(=O)N3CCCCC3)cc2Cl)cc1Cl [Preparation 15]
Output line: 0.064

Input line: Another compound: CC(C)COc1ncc(Oc2cc(F)c(C(=O)NS(=O)(=O)N3CCCCCC3)cc2Cl)cc1Cl [Preparation 16]
Output line: 0.073

Input line: Could you do the same for CC(C)COc1ncc(Oc2cc(F)c(C(=O)NS(N)(=O)=O)cc2Cl)cc1Cl [Preparation 4] , please?
Output line: 0.009

Input line: # repeat for CC(C)Oc1ncc(Oc2cc(F)c(C(=O)NS(=O)(=O)N3CCC3)cc2C2CC2)cc1Cl [Preparation 87]
Output line: 0.0021

Input line: Another: CN(C)S(=O)(=O)NC(=O)c1cc(Cl)c(COc2ccc(Cl)c(Cl)c2)cc1F [Preparation 5]
Output line: 0.019

Input line: Please give the result for COc1ncccc1-c1cc(C(=O)NS(=O)(=O)N2CCC2)ccc1Oc1cnc(OC(C)C)c(Cl)c1 [Preparation 86] too.
Output line: 0.022

Input line: What about this compound? CN(C)S(=O)(=O)NC(=O)c1cc(Cl)c(COc2cnc(OCC(F)(F)C(F)F)c(Cl)c2)cc1F [Preparation 76]
Output line: 0.0343

Input line: Then CC(C)COc1ncc(Oc2cc(F)c(C(=O)NS(=O)(=O)c3cccnc3)cc2Cl)cc1Cl [Preparation 28] ?
Output line: 0.057

Input line: Would you kindly repeat that for CN(C)S(=O)(=O)NC(=O)c1cc(Cl)c(Oc2ccc(OC(F)(F)F)c(Cl)c2)cc1F [Preparation 12] ?
Output line: 0.041

Input line: // repeat for CC(C)Oc1ncc(Oc2ccc(C(=O)NS(=O)(=O)N3CCC3)cc2C2CC2)cc1Cl [Preparation 84] and report
Output line: 0.0084

Input line: And CNS(=O)(=O)NC(=O)c1cc(Cl)c(Oc2cnc(OCC(C)C)c(Cl)c2)cc1F [Preparation 6] ?
Output line: 0.006

Input line: What about CNS(=O)(=O)NC(=O)c1cc(Cl)c(Oc2ccc(Cl)c(C(F)(F)F)c2)cc1F [Preparation 8] ?
Output line: 0.022

Input line: Can you handle CNS(=O)(=O)NC(=O)c1cc(Cl)c(Oc2ccc(OC(F)(F)F)c(Cl)c2)cc1F [Preparation 11] next?
Output line: 0.015

Input line: Lookup CC(C)COc1ncc(Oc2cc(F)c(C(=O)NS(=O)(=O)c3c[nH]cn3)cc2Cl)cc1Cl [Preparation 26]
Output line: 0.009

Input line: Repeat with CN(C)S(=O)(=O)NC(=O)c1cc(Cl)c(Oc2ccc(Cl)c(C(F)(F)F)c2)cc1F [Preparation 1]
Output line: 0.053
